Listing of recorded normalized growth by entry.
Protocol description: chemical genetic growth profiling, strain panel (AID 1159580);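 note: tested at 20 µM; growth read once vehicle control cultures reached saturation at 30 °C; 1 = growth at the plate median or of vehicle wells; lower values mean less growth of the strain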
Protocol conditions: S. cerevisiae deletion strains, growth OD, locus YDR335W, strain msn5, hits give low values
About 2,000 (36%) of roughly 5,500 compounds were called active. Another 18% or so got no clear call; they are omitted. Some of the results follow.
Returns: the value as a bare number; no unit string appended.

Consider the following illustrative entries.
Molecule: CC(=O)S[C@@H]1CC2=CC(=O)CC[C@]2(C)[C@H]2CC[C@@]3(C)[C@@H](CC[C@@]34CCC(=O)O4)C12 (some centres undefined)
Assay metric: normalized growth
Measured number: 1.02

Molecule: CC(=O)O[C@H]1C[C@@H](OC(C)=O)C(C)(C)C2CC(=O)[C@]3(C)C(CC[C@@]4(C)[C@H](C(=O)O)OC(=O)C5OC543)[C@]21C (some centres undefined)
Assay metric: normalized growth
Measured number: 0.987

Molecule: Cc1ccc(C(=O)Nc2ccc(S(=O)(=O)O)c3cc(S(=O)(=O)O)cc(S(=O)(=O)O)c23)cc1NC(=O)c1cccc(NC(=O)Nc2cccc(C(=O)Nc3cc(C(=O)Nc4ccc(S(=O)(=O)O)c5cc(S(=O)(=O)O)cc(S(=O)(=O)O)c45)ccc3C)c2)c1
Assay metric: normalized growth
Measured number: 1.02

Molecule: CCC[C@H](N[C@@H](C)C(=O)N1[C@H](C(=O)O)C[C@@H]2CCCC[C@@H]21)C(=O)OCC
Assay metric: normalized growth
Measured number: 1.01

Molecule: CN1C2CCC1CC(OC(c1ccccc1)c1ccccc1)C2 (centres undefined)
Assay metric: normalized growth
Measured number: 0.986

Molecule: Clc1ccc(C(c2ccc(Cl)cc2)C(Cl)(Cl)Cl)cc1
Assay metric: normalized growth
Measured number: 1.01

Molecule: Oc1cc(O)c2c(c1)O[C@H](c1cc(O)c(O)c(O)c1)[C@H](O)C2
Assay metric: normalized growth
Measured number: 1.01

Molecule: CNC(=O)O/N=C(\C)SC
Assay metric: normalized growth
Measured number: 0.997

Which normalized growth is reported for this molecule? COc1ccc(C(CN(C)C)C2(O)CCCCC2)cc1 (centres undefined)
0.996

Which normalized growth is reported for this molecule? COC(=O)c1cc(=O)c(O)c2c(O)c(O)ccc2c1
0.994

Which normalized growth is reported for this molecule? C[C@]12CCC(=O)C=C1C=CC1C2CC[C@@]2(C)C1CC[C@@]21CCC(=O)O1 (some centres undefined)
0.976

====

Protocol description: chemical genetic growth profiling, strain panel (AID 1159580);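 note: tested at 20 µM; growth read once vehicle control cultures reached saturation at 30 °C; 1 = growth at the plate median or of vehicle wells; lower values mean less growth of the strain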
Protocol conditions: S. cerevisiae deletion strains, growth OD, locus YHR200W, strain rpn10, hits give low values
In all, about 5,500 compounds went through this assay and about 2,000 (36%) were called active. About 18% were inconclusive and are not listed. This is one part of the list.
Assay metric: normalized growth
Returns: the value as a bare number; no unit string appended.

Which normalized growth is reported for this molecule? COc1cc(CNC(=O)CCCC/C=C/C(C)C)ccc1O
1.01

Which normalized growth is reported for this molecule? CCn1cc(C(=O)O)c(=O)c2cc(F)c(N3CCNC(C)C3)c(F)c21 (stereo not given)
0.982

Which normalized growth is reported for this molecule? CC[C@@H](C(=O)C(C)[C@@H](O)[C@H](C)CCc1ccc(C)c(O)c1C(=O)O)C1OC(CC)(C2CC[C@](O)(CC)[C@H](C)O2)C[C@@H]1C (stereo not given in full)
1.02

Which normalized growth is reported for this molecule? OCC(O)CN1CCN(c2ccccc2)CC1 (stereo not given)
0.993

Which normalized growth is reported for this molecule? Clc1ccc(C(c2ccc(Cl)cc2)C(Cl)(Cl)Cl)cc1
0.991

Which normalized growth is reported for this molecule? CC1(C)S[C@@H]2[C@H](NC(=O)[C@H](N)c3ccccc3)C(=O)N2[C@H]1C(=O)O
1

Which normalized growth is reported for this molecule? COc1c(N2CCNC(C)C2)c(F)cc2c(=O)c(C(=O)O)cn(C3CC3)c12 (stereo not given)
0.991

Which normalized growth is reported for this molecule? CCn1cc(C(=O)O)c(=O)c2cc(F)c(N3CCNCC3)nc21
1.01

Which normalized growth is reported for this molecule? O=C(OCC(O)CO)c1ccccc1Nc1ccnc2cc(Cl)ccc12 (stereo not given)
0.987

Which normalized growth is reported for this molecule? CCCCCCCCC(=O)NCc1ccc(O)c(OC)c1
0.981

Which normalized growth is reported for this molecule? Clc1ccc(C(OCCN2CCCCC2)c2ccccc2)cc1 (stereo not given)
0.989

Which normalized growth is reported for this molecule? COC(=O)[C@@H]1OC(=O)C2OC23[C@@]1(C)CCC1[C@]2(C)C(C[C@H](O)[C@]13C)C(C)(C)[C@H](OC(C)=O)C[C@@H]2OC(C)=O (stereo not given in full)
0.987

Which normalized growth is reported for this molecule? O=C1CCC(N2C(=O)c3ccccc3C2=O)C(=O)N1 (stereo not given)
0.986

Which normalized growth is reported for this molecule? COc1cc([C@@H]2c3cc4c(cc3C(OC3O[C@@H]5COC(C)O[C@H]5[C@H](O)[C@H]3O)C3COC(=O)[C@@H]32)OCO4)cc(OC)c1O (stereo not given in full)
1

Which normalized growth is reported for this molecule? O=C1NCC2(CCN(CCc3ccccc3)CC2)O1
0.994

Which normalized growth is reported for this molecule? Cc1ccccc1C(OCCN(C)C)c1ccccc1 (stereo not given)
1.01

Which normalized growth is reported for this molecule? C/C=C(\C)C(=O)O[C@H]1C[C@@H](OC(C)=O)[C@@]2(C(=O)OC)CO[C@@H]3C2[C@]12CO[C@](O)(C(=O)OC)[C@H]2[C@](C)(C12O[C@@]1(C)[C@H]1C[C@@H]2OC2OC=C[C@@]21O)[C@@H]3O (stereo not given in full)
0.987

Which normalized growth is reported for this molecule? C[C@@H]1O[C@@H](O[C@H]2[C@H](Oc3cc(O)c4c(=O)cc(-c5ccc(O)cc5)oc4c3)O[C@H](CO)[C@@H](O)[C@@H]2O)[C@H](O)[C@H](O)[C@H]1O
0.988

Which normalized growth is reported for this molecule? COc1ccc(C(CN(C)C)C2(O)CCCCC2)cc1 (stereo not given)
0.996

Which normalized growth is reported for this molecule? CN1CCC(OC(c2ccccc2)c2ccccc2)CC1
0.987

Which normalized growth is reported for this molecule? CC1COc2c(N3CCN(C)CC3)c(F)cc3c(=O)c(C(=O)O)cn1c23 (stereo not given)
1.01

Which normalized growth is reported for this molecule? NC(=O)c1ccc[n+]([C@@H]2O[C@H](COP(=O)([O-])OP(=O)(O)OC[C@H]3O[C@@H](n4cnc5c(N)ncnc54)[C@H](OP(=O)(O)O)[C@@H]3O)[C@@H](O)[C@H]2O)c1
1

Which normalized growth is reported for this molecule? CN1C2C[C@H](OC(=O)[C@H](CO)c3ccccc3)C[C@H]1[C@@H](O)C2
1

Which normalized growth is reported for this molecule? COc1ccc(-c2coc3cc(O)ccc3c2=O)c(OC)c1O
0.991

Which normalized growth is reported for this molecule? CN1CC(CO)=C[C@@H]2c3cccc4[nH]cc(c34)C[C@H]21
1.01

Which normalized growth is reported for this molecule? O=c1c(-c2ccc(O)cc2)coc2cc(O)ccc12
0.979

====

Protocol description: chemical genetic growth profiling, strain panel (AID 1159580);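 note: tested at 20 µM; growth read once vehicle control cultures reached saturation at 30 °C; 1 = growth at the plate median or of vehicle wells; lower values mean less growth of the strain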
Protocol conditions: S. cerevisiae deletion strains, growth OD, locus YDL214C, strain PRR2
Screen size: about 5,500 compounds; about 2,000 (36%) were called active. Another 18% or so got no clear call; they are omitted. No stated cut-off is given here; in the data, active means normalized growth mostly below about 0.91 (no sharp cut-off); inconclusive means no clear call, values can overlap the other calls; inactive means mostly above about 0.92. The list shows a part of the results.
Use one of these outcomes when replying: Yes = active, No = inactive

Molecule: CC(C)c1ccc(COC(=O)Nc2ccc(CSc3ccc(Cl)cc3)o2)cc1
Assigned class: No

Per the assay record, what outcome was assigned to CC(C)(C)c1ccc(N/N=C(\C#N)C(N)=O)cc1 ?
Yes

Per the assay record, what outcome was assigned to Cc1cccc(NC(=S)N/N=C\c2ccc(F)cc2)c1 ?
No

Per the assay record, what outcome was assigned to COc1cc(Cl)ccc1N/N=C(/C#N)C(N)=O ?
Yes

Per the assay record, what outcome was assigned to O=C(ON=C1CCCCC1)c1ccc([N+](=O)[O-])cc1 ?
No

Per the assay record, what outcome was assigned to CC(=O)c1ccc(Cl)c(NS(=O)(=O)c2cc(Cl)c(Cl)cc2Cl)c1 ?
No

Per the assay record, what outcome was assigned to CCOC(=O)c1ccc2nc(N=CNO)sc2c1 ?
No

Per the assay record, what outcome was assigned to CCOC(=O)C1C(c2c(F)cccc2Cl)C(C(=O)OCC)C(O)(C(F)(F)F)NC1(O)C(F)(F)F (stereo unspecified) ?
No

Per the assay record, what outcome was assigned to Cc1ccc(Nc2ccnc3cc(Cl)ccc23)cc1F ?
No

Per the assay record, what outcome was assigned to CC1(C)CC(=O)C=C(Sc2nc3ccccc3o2)C1 ?
No

Per the assay record, what outcome was assigned to Cc1cc(C(=O)NNS(=O)(=O)c2ccc(F)c(Cl)c2)nn1-c1c(Cl)cc(Cl)cc1Cl ?
No

Data provenance: PubChem BioAssay AID1159580
